experiment: Cell Viability - LYMP2-019 (AID 973); settings: LYMP2-019 lymphoblastoid cell line viability; series mostly up to 92.2 µM;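 also: cells exposed to compound for 24 h at 37 °C; nearly all actives have a fitted effect of over 55% in size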
Records with an inconclusive call do not appear. Calls of active or inactive are those of the source. Calls follow the shape of the dose curve; as a rule, active = well fitted cell-killing curve with a large enough effect; inconclusive = small, poorly fitted or top-dose-only effect; inactive = flat fitted curve, though single readings scatter.
Classes used: y for active, n for inactive

compound | group label
CCCCCCCCOC(=O)c1ccccc1C(=O)OCCCCCCCC | n
COc1ccc2c(c1OC)C(=O)OC2C1c2cc3c(cc2CCN1C)OCO3 (stereo unspecified) | n
O=CC=O | n
[Cl-].[Cl-].[Hg+2] | y
C[C@H]1CC[C@@H]2[C@@H](C)[C@H]3[C@H](C[C@H]4[C@@H]5CC=C6CC(O[C@@H]7O[C@H](CO)[C@H](O)[C@H](O[C@@H]8O[C@H](CO)[C@@H](O)[C@H](O)[C@H]8O)[C@H]7O[C@H]7O[C@@H](C)[C@H](O)[C@@H](O)[C@H]7O)CC[C@]6(C)[C@H]5CC[C@]34C)N2C1 (stereo partly specified) | y
O=C1CCO1 | n
CCOC(=O)c1ccccc1C(=O)OCC | n
Oc1cc(Cl)c(Cl)cc1Cl | n
O=[N+]([O-])c1ccc(F)c([N+](=O)[O-])c1 | n
CC(C)Nc1ccc(Nc2ccccc2)cc1 | y
CC(C)CCON=O | n

----------
System: ATS95
Assay: qHTS profiling for inhibitors of Plasmodium falciparum proliferation (AID 504749); also: nearly all actives have a fitted effect of over 60% in size
Settings: P. falciparum in erythrocytes, SYBR Green DNA, 72 h; series mostly up to 28.7 µM
Method: NIH National Institute of Allergy and Infectious Diseases [NIAID] NIH Chemical Genomics Center [NCGC] […] Because mature erythrocytes lack DNA, only Plasmodium-derived DNA is detected. NCGC Assay Protocol Summary: The SYBR Green viability assay was adapted from a method described previously (Plouffe et al., 2008). […] The following morning, fluorescence intensity at 485(14) nm excitation and 535(25) nm emission wavelengths was measured on an EnVision (Perkin Elmer) plate reader. […]
Results filed as inconclusive are left out. Calls of active or inactive are those of the source. The call rests on the fitted dose curve; in most records, active means well fitted inhibition curve with a large enough effect; inconclusive means small, poorly fitted or top-dose-only effect; inactive means flat fitted curve, though single readings scatter.
Classes used: TRUE (active), FALSE (inactive)

molecule | group label
FC(F)OC(F)(F)C(F)Cl (stereo not drawn) | FALSE
O=Cc1ccco1 | FALSE
O=c1c2ccccc2[se]n1-c1ccccc1 | FALSE
O=C1CCCCC1CN1CCCCC1 (stereo not drawn) | FALSE
ClC(Cl)(Cl)Cl | FALSE
CCC1(c2ccccc2)C(=O)NC(=O)NC1=O | FALSE
CC(=O)OC1CN2CCC1CC2 (stereo not drawn) | FALSE
F/C(COc1ccc2c(c1)[nH]c1ccccc12)=C1/CN2CCC1CC2 | TRUE
CCCCNCC(O)c1ccc(O)cc1 (stereo not drawn) | FALSE
[O]=[Cd] | FALSE
COc1ccc2c3c1O[C@H]1C(=O)CC[C@H]4[C@@H](C2)N(C)CC[C@]314 | FALSE
CCCCCCCCOC(=O)c1ccccc1C(=O)OCCCCCCCC | FALSE
CC[N+](C)(CC)CCOC(=O)C(O)(c1ccccc1)c1ccccc1 | FALSE
C=CCC1(C(C)CCC)C(=O)N=C(S)NC1=O (stereo not drawn) | FALSE
CC(Cc1ccccc1)NC=O (stereo not drawn) | FALSE
c1ccc2sc(SNC3CCCCC3)nc2c1 | FALSE
C[C@H]1CC[C@@H]2[C@@H](C)[C@H]3[C@H](C[C@H]4[C@@H]5CC=C6CC(O[C@@H]7O[C@H](CO)[C@H](O)[C@H](O[C@@H]8O[C@H](CO)[C@@H](O)[C@H](O)[C@H]8O)[C@H]7O[C@H]7O[C@@H](C)[C@H](O)[C@@H](O)[C@H]7O)CC[C@]6(C)[C@H]5CC[C@]34C)N2C1 (stereo partly drawn) | FALSE
O=C(NC(=O)c1c(F)cccc1F)Nc1ccc(Cl)c(Oc2ncc(C(F)(F)F)cc2Cl)c1 | FALSE
CCC1C(C)=NN=C(c2ccc(OC)c(OC)c2)c2cc(OC)c(OC)cc21 (stereo not drawn) | FALSE
CCC(=O)O[C@@](Cc1ccccc1)(c1ccccc1)[C@@H](C)CN(C)C | FALSE
CCC1(c2ccccc2)C(=O)NC(=O)N(C)C1=O (stereo not drawn) | FALSE
CC(N)Cc1ccc(O)cc1 (stereo not drawn) | FALSE
C/C(=C\c1csc(C)n1)[C@@H]1C[C@@H]2O[C@]2(C)CCC[C@H](C)[C@H](O)[C@@H](C)C(=O)C(C)(C)[C@@H](O)CC(=O)O1 | TRUE
